- Test system: HCC-2998 colon
- experiment: NCI-60 one-dose screen, 48 h
- details: 10 µM unless noted
About 83,000 compounds went through this panel and 20% of them were active in at least one assay; those are over-represented in the sample as a whole. Active and inactive are the calls of the source. Rule for the calls: active = growth percent below 10; inactive = the rest.
Would you mind answering with one of these outcomes? active, inactive

Would you please look over these solved cases?
Q) Hi, sorry to bother you, what did the test record for O=C(CNC1CCCCC1)Nc1ccc(-c2nc3ccccc3s2)cc1 ?
A) inactive

Q) I'd appreciate the recorded outcome for COc1ccc(C2CC(c3cccs3)=NN2c2ccc(S(=O)(=O)NC(=O)NCc3cccc(OC)c3)cc2)cc1 (stereo unspecified) from this test.
A) inactive

Q) What was the test verdict on CCN1C(=O)N[C@H]2[C@@H]3NC(=O)c4ccc(Cl)n4[C@@H]3C[C@]21O ?
A) active

Q) What call does the record list for O=S(=O)(NCCNc1cc(-c2cn(-c3ccccc3)nc2-c2ccccc2)ccn1)c1cccc2ccccc12 ?
A) inactive

Q) What classification did Cc1nc2sccn2c1-c1csc(Nc2ccccc2Cl)n1 end up with in this test?
A) inactive

Q) Kindly provide the recorded test outcome for the following compound: COc1ccc(-c2nc3sccn3c2-c2ccnc(NCCNS(=O)(=O)c3ccc(C(F)(F)F)cc3)n2)cc1
A) inactive

More entries:
Q) Recorded test call requested for COc1cccc2nc(Nc3ccc(NC(=O)c4ccc5ncccc5c4)cc3)ccc12
A) inactive

Q) Which outcome was assigned to COc1ccc(NC(=S)/N=c2\oc3c(OC)cccc3cc2-c2cc3ccccc3[nH]2)cc1 in this test?
A) inactive

Q) Assay result, entry CC1Cc2c(N(C)C)ncnc2N(C)c2ccc(Cl)cc21 (stereo unspecified) — outcome?
A) inactive

Q) Which result was noted for this compound in the test: CCOC(=O)C1=C(CSC(=S)N(C2CCCCC2)C2CCCCC2)N(C)C(=O)NC1c1ccccc1 (stereo unspecified)
A) inactive

Q) Fill in: this test's call for CCC(c1ccc(OC)cc1)C(CC)c1ccc(OCC[N+](C)(C)C)cc1 (stereo unspecified) is ___
A) inactive

Q) I'd appreciate the recorded outcome for COc1cc(C(=O)CCCl)ccc1O from this test.
A) inactive

Q) Write down the call the test reported for this compound. Item: COc1ccc(/C=C2\C(=O)N(C(=O)c3csc(NC(C)=O)n3)N=C2C)cc1
A) inactive

Q) For CCNc1nc(N2CC(=O)Nc3cc(OC)ccc32)c2ccccc2n1 , what call appears in the results of this test?
A) active

Q) How did this test come out for O=C(NNC(=S)Nc1ccccc1)c1ccccn1 ?
A) inactive

Q) Give the logged outcome of this assay for the following compound: Nc1c(C(=O)Nc2c(Cl)cccc2Cl)sc2nc3c(cc12)CCCCC3
A) inactive

Q) For this compound, state the assay outcome: O=c1[nH]c(CN2CCN(c3ccccc3F)CC2)nc2sc3c(c12)CCC3
A) inactive

Q) Given Nc1cc2c(cc1N)-c1cc(N)c(N)cc1C2 , state the outcome it received in this test.
A) inactive

Q) // outcome(item) with item = NC(CC(N)C(=O)O)C(=O)O (stereo unspecified)
A) inactive

Q) Write down the call the test reported for this compound. Item: c1cncc(CNc2ccccc2-c2nnc(Nc3ccc4c(c3)OCCO4)o2)c1
A) active

Q) What call does the record list for COC(=O)c1ccc2nc(-c3cc4ccccc4n3C)n(CCCCOc3cc4c(cc3OC)C(=O)N3CCC[C@H]3C=N4)c2c1 ?
A) active
